Source: ChEMBL document CHEMBL5518227

assay: Clearance in CD-1 mouse at 2.5 mg/kg, iv measured upto 24 hrs by LC-MS/MS analysis; format: ADME, organism-based; conditions: in vivo
PARAMETER_MEASURED: clearance
Remember to follow the number with its unit.

Exercise: For the compound COc1cc(N[C@H](C(=O)c2c[nH]c3ccc(OC(F)(F)F)cc23)c2ccc(Cl)cc2OC)cc(S(C)(=O)=O)c1 [MOSNODENVIR] , what clearance is on record?
Solution: 4.97 mL/min/kg

###

assay: Volume of distribution at steady state in Sprague-Dawley rat at 2.5 mg/kg, iv measured after 24 hrs by LC-MS/MS analysis; type: ADME, organism-based; details: in vivo, read-out: Vdss
PARAMETER_MEASURED: Vd (L/kg)
Report only the number, with the unit L/kg understood.

The following compounds have reported results that may help.
COMPOUND: COc1cc(NC(C(=O)c2c[nH]c3cc(F)ccc23)c2ccc(F)cc2OCCO)cc(S(C)(=O)=O)c1 (single isomer, unassigned; (+))
Vd (L/kg): 10

COMPOUND: COc1cc(NC(C(=O)c2c[nH]c3cc(OC)c(C)cc23)c2ccc(Cl)cc2OCCO)cc(S(C)(=O)=O)c1 (single isomer, unassigned; (+))
Vd (L/kg): 7.1

Exercise: Quick one: Vd of COc1cc(N[C@H](C(=O)c2c[nH]c3ccc(OC(F)(F)F)cc23)c2ccc(Cl)cc2OC)cc(S(C)(=O)=O)c1 ?
Solution: 4.6
